The origin of these recorded values is paper PMC5540273.

Here, each record is paired with measured %Inh data.
Tested on: MKNK2
test.parameters: concentration: 1 μM, replicates: in singlicate; n = 1;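 also: KINOMEscan kinase panel screen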
Lab note: write values as number then unit, every time.

Take a look at these entries with their results.
> print(dat)
                                   compound  measurement
1  CN1CCN(Cc2ccc(NC(=O)Nc3ccc(N(C)c4ccnc(Nc5ccc(CS(C)(=O)=O)cc5)n4)cc3)cc2)CC1.Cl         100%
2  COc1ccc(NC(=O)c2ccoc2)cc1-c1ccc(C(=O)NCC2CC2)cc1          13%
3  COc1cc(Nc2ccnc3cc(-c4ccncc4)ccc23)cc(OC)c1OC.Cl          14%
4  Cc1ccc(C)c(NC(=O)Nc2ccc(C)c(-c3ccc(C(=O)Nc4ccncc4)cc3)c2)c1           4%
5  Cl.Cl.NCC(NC(=O)c1cc(-c2cccnc2)c(-c2ccnc3[nH]ccc23)s1)c1ccccc1 (centres unmarked)          56%

**Query** %Inh for O=C(Nc1c(F)cccc1F)c1cc(C(=O)c2ccccc2F)c[nH]1 ?
**Result** 0%

**Query** Moving on to the next compound: Cc1cc(-c2c(-c3ccc(F)cc3)ncn2CCCN2CCOCC2)nc(N)n1
**Result** 0%

**Query** Moving on to the next compound: O=C(O)C(F)(F)F.O=c1[nH]ccc2nc(N[C@@H]3CCNC3)nc(Nc3cc(Cl)cc(Cl)c3)c12
**Result** 14%

**Query** Moving on to the next compound: Cc1cc(-c2ccnc(Nc3cccc(C#N)c3)n2)cc(C)c1O
**Result** 2%

**Query** Moving on to the next compound: Cn1cc(-c2cnc(N)c3c(-c4ccc5c(c4)CCN5C(=O)Cc4ccccc4)csc23)cn1
**Result** 0%

**Query** Moving on to the next compound: O=C1NC(=O)C(c2ccccc2Cl)=C1Nc1cccc(Cl)c1
**Result** 18%

**Query** Moving on to the next compound: COC(=O)Nc1nc2ccc(Oc3ccc(NC(=O)Nc4cc(C(F)(F)F)ccc4F)cc3)cc2[nH]1.Cl
**Result** 94.9%

**Query** Moving on to the next compound: N#Cc1cnc2cc(-c3cnc(CNCCN4CCOCC4)s3)ccc2c1Nc1ccc(Oc2ccccc2)cc1
**Result** 6%

---

Test system: CDK4-cyclinD1
test.parameters: concentration: 1 μM, replicates: in singlicate; n = 1
result.type: %Inh (%)
Write it as a number; the unit % goes unstated.

Take a look at these entries with their results.
> print(dat)
                                   compound  measurement
1  Cc1cc(-c2ccnc(Nc3cccc(C#N)c3)n2)cc(C)c1O           42
2  COc1ccc(C2=C(Nc3cccc(O)c3)C(=O)NC2=O)cc1           20
3  N#Cc1cnc2cc(-c3cnc(CNCCN4CCOCC4)s3)ccc2c1Nc1ccc(Oc2ccccc2)cc1            0
4  Cc1cc(-c2c(-c3ccc(F)cc3)ncn2CCCN2CCOCC2)nc(N)n1            0
5  CCNC(=O)/C=C/c1n[nH]c2cc(Sc3ccccc3C(=O)NC)ccc12            0
6  Nc1ncc(-c2ccc3nccc(-c4ccncc4)c3c2)cc1S(=O)(=O)N1CCCCC1            9
7  NCCC(NC(=O)c1cc(Br)c(-c2ccnc3[nH]ccc23)s1)c1ccccc1.O=C(O)C(F)(F)F.O=C(O)C(F)(F)F (centres unmarked)           38

Query compound follows.
**Query** %Inh for CC(C)c1nc(-c2ccc(F)c(NS(=O)(=O)c3c(F)cccc3F)c2)c(-c2ccnc(Nc3ccc(N4CCOCC4)nc3)n2)s1 ?
**Result** 26

---

Tested on: CSNK1A1L
test.parameters: concentration: 1 μM, replicates: in singlicate; n = 1
result.type: %Inh (%)
Write it as a number; the unit % goes unstated.

> print(dat)
                                   compound  measurement
1  Nc1ncc(-c2ccc3nccc(-c4ccncc4)c3c2)cc1S(=O)(=O)N1CCCCC1            0
2  COC(=O)Nc1nc2ccc(Oc3ccc(CC(=O)Nc4cc(C(F)(F)F)ccc4F)cc3)cc2[nH]1            0
3  COc1ccc(C)c(Nc2ccnc(Nc3ccc(-c4cnc[nH]4)cc3)n2)c1.Cl            2
4  Cc1cccc(Nc2nc(N[C@H]3CCCC[C@H]3N)ncc2C(N)=O)c1.Cl           59
5  Cc1ccc(NC(=O)c2ccc(Cl)c(Cl)c2)cc1-c1ccc(C(=O)Nc2ccncc2)cc1            8

**Query** %Inh for Cl.N#CCc1ccc(Nc2nccc(Nc3ccc(Oc4ccccc4)cc3)n2)cc1 ?
**Result** 0

**Query** Moving on to the next compound: Cl.O=C(Nc1ccc(Oc2ccc3[nH]c(NC(=O)c4ccco4)nc3c2)cc1)Nc1cc(C(F)(F)F)ccc1F
**Result** 0

---

System: RPS6KA5(Kin.Dom.1-N-terminal)
test.parameters: concentration: 1 μM, replicates: in singlicate; n = 1
result.type: %Inh (%)
Write it as a number; the unit % goes unstated.

Take a look at these entries with their results.
> print(dat)
                                   compound  result.type  units.label  measurement
1  CC(C)(C)c1ccc(C(=O)Nc2cn3cc(-n4ccnc4)ccc3n2)cc1         %Inh            %           10
2  CC(C)NCC(Cc1ccccc1)NC(=O)c1cc(Br)c(-c2ccnc3[nH]ccc23)s1.Cl.Cl (centres unmarked) [GSK1383281]         %Inh            %           48
3  COc1cc(Nc2ccnc3cc(-c4ccncc4)ccc23)cc(OC)c1OC.Cl [GW494610]         %Inh            %           22

**Query** %Inh for CS(=O)(=O)c1cccc(CNc2nc(Nc3ccc4c(c3)CCC(=O)N4)ncc2C(F)(F)F)c1 ?
**Result** 0

**Query** Moving on to the next compound: CN(C)CCOc1ccc(-c2cc(-c3ccc(Cl)c(O)c3)c(-c3ccncc3)[nH]2)cc1.Cl.Cl [SB-684387]
**Result** 0

**Query** Moving on to the next compound: COC(=O)Nc1nc2ccc(Oc3ccc(CC(=O)Nc4cc(C(F)(F)F)ccc4F)cc3)cc2[nH]1 [GW680903]
**Result** 1

**Query** Moving on to the next compound: Cc1cc(-c2ccnc(Nc3cccc(C#N)c3)n2)cc(C)c1O [GSK1440913]
**Result** 0

**Query** Moving on to the next compound: Nc1ncc(-c2ccc3nccc(-c4ccncc4)c3c2)cc1S(=O)(=O)N1CCCCC1 [GSK1693850]
**Result** 9

**Query** Moving on to the next compound: COc1cc(Nc2nccc(N3CCC(NC(=O)Nc4ccc5c(c4)OCO5)C3)n2)cc(OC)c1OC (centres unmarked) [GSK1379766]
**Result** 1

---

System: EPHA2
test.parameters: concentration: 1 μM, replicates: in singlicate; n = 1
%Inh below 20% gives false; %Inh at or above it gives true.

Solved cases below.
> print(dat)
                                   compound  classification
1  Fc1cc(Cl)ccc1Nc1ccnc2cc(-c3ccc(CN4CCSCC4)o3)ccc12            true
2  COc1cc(Nc2nccc(N3CCC(NC(=O)Nc4ccc5c(c4)OCO5)C3)n2)cc(OC)c1OC (centres unmarked)           false
3     O=C(Nc1n[nH]c2cc(-c3cccs3)ccc12)C1CC1           false
4  CCNc1nccc(-c2c(-c3ccc(F)cc3)ncn2C2CCN(C)CC2)n1           false
5  Nc1ncc(-c2ccc3nccc(-c4ccncc4)c3c2)cc1S(=O)(=O)N1CCCCC1            true

**Query** Is reported %Inh greater than or equal to 20% here: Cc1ccc(NC(=O)c2ccc(Cl)c(Cl)c2)cc1-c1ccc(C(=O)Nc2ccncc2)cc1
**Result** false

**Query** Moving on to the next compound: CN(c1ccc(NC(=O)N2CCN(CCCN3CCOCC3)CC2)cc1)c1ccnc(Nc2ccc(CS(C)(=O)=O)cc2)n1.Cl
**Result** true

**Query** Moving on to the next compound: COc1cccc(-c2nc(-c3ccccc3)[nH]c2-c2ccncc2)c1
**Result** false

---

Tested on: PRKR
Construct: gene EIF2AK2
test.parameters: concentration: 1 μM, replicates: in singlicate; n = 1
Here, each record is paired with measured %Inh data.
Write it as a number; the unit % goes unstated.

Take a look at these entries with their results.
> print(dat)
                                   molecule  measurement
1  COc1ccc(NC(=O)c2ccoc2)cc1-c1ccc(C(=O)NCC2CC2)cc1 [GW810437]            0
2  CN(c1ccc(NC(=O)N2CCN(CCCN3CCOCC3)CC2)cc1)c1ccnc(Nc2ccc(CS(C)(=O)=O)cc2)n1.Cl [GW830899]            0

**Query** %Inh for CN(c1ccc2c(c1)nc(NCc1ccccc1)n2C)c1ccnc(Nc2ccc(CS(C)(=O)=O)cc2)n1.Cl [GW811603] ?
**Result** 1
